Values were extracted from patent US11666558B2.

Experiment: Ocular tissue concentrations (aqueous humor, vitreous humor, iris, retina, choroid, cornea) after topical ocular, subcutaneous and intravitreal administration
Format: in vivo, New Zealand White rabbits
Conditions: New Zealand White, rabbit, retina, subcutaneous, 5 mg/kg/dose, Retina, 2 hr, OS; free acid, subcutaneous 5 mg/kg/dose, Group 3; read-out: Retina Conc. (ng/g) OS
readout_kind: concentration at 2 h

chemical_structure	value
COC(=O)N[C@@H](Cc1ccccc1)C(=O)N[C@@H](Cc1ccc(NS(=O)(=O)O)cc1)c1csc(-c2cccs2)n1	6.93 ng/g

----------
Assay: Ocular tissue concentrations (aqueous humor, vitreous humor, iris, retina, choroid, cornea) after topical ocular, subcutaneous and intravitreal administration
Type: in vivo, New Zealand White rabbits
Conditions: New Zealand White, rabbit, iris homogenate, subcutaneous, 5 mg/kg/dose, Iris homogenate, 4 hr, OD; sodium salt, subcutaneous 5 mg/kg/dose, Group 2; read-out: Iris Conc. (ng/mL) OD

chemical_structure	concentration at 4 hr / ng/mL
COC(=O)N[C@@H](Cc1ccccc1)C(=O)N[C@@H](Cc1ccc(NS(=O)(=O)O)cc1)c1csc(-c2cccs2)n1	2.12
